Test system: SK-MEL-2 melanoma
Test: NCI-60 one-dose screen, 48 h
Conditions: 10 µM unless noted
Compounds without any hit were thinned out: in the full panel of roughly 83,000, 20% have a hit. Activity calls are given as the source filed them. Rule for the calls: active = growth percent below 10; inactive = the rest.
Select the correct class. Options are active, inactive and nothing else.

>>> category_label("COc1ccc(C(=O)C/C(=C\\c2ccc(Cl)cc2)C(=O)NCc2ccccc2)cc1")
"inactive"

q: Please share the test call associated with CC(=O)c1c(C)nc(SCC(=O)Nc2cccc(O)c2)n1-c1ccc(Cl)cc1 .
a: inactive

q: Next molecule up: Cc1ccc2c(c1)=C/C(=C\c1cc(-c3ccccc3)oc1O)C(=O)N=2
a: inactive

meta.source: PubChem BioAssay (NCI)
